Measured IC50, listed per entry for reference.
- tested-target: CCR4 (Homo sapiens, UniProt P51679)
- Construct: CEM Cells Endogenous Express CCR4; endogenous in cells; host or cells: CEM cells
- Sequence (P51679 whole entry): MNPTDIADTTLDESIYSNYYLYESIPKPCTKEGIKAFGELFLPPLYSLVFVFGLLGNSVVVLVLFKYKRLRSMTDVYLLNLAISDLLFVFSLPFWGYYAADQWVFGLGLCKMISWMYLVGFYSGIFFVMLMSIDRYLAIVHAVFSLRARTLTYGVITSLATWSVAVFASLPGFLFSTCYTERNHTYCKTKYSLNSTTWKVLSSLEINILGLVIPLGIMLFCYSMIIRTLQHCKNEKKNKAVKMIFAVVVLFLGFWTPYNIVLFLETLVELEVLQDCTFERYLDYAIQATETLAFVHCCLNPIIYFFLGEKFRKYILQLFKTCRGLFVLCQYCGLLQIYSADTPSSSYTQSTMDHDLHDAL
- test-protocol: CEM cell chemotaxis (migration) assay to CCL22 (MDC) in 100% Fetal Bovine Serum (FBS)
- Type: cell-based
- condition-set: CEM cells in 100% FBS with 1% HEPEs; recombinant human CCL22 0.1 nM; 37° C. 60 minutes

C[C@@H](Nc1nc(N2CCN(C(=O)[C@H]3CCCN3)CC2)ncc1Cl)c1ccc(Cl)cc1F [Example 1.004]	< 0.1 µM
Cc1nc(N2CCN(C(=O)[C@H]3CCC(=O)N3)CC2)nc(N[C@H](C)c2ccc(Cl)cc2Cl)c1Cl [Example 1.113]	< 0.1 µM
COc1cnc(N2CCN(C(=O)CCN(C)C)CC2)nc1N[C@H](C)c1ccc(Cl)cc1Cl [Example 1.187]	< 0.1 µM
C[C@@H]1CN(c2ncc(Cl)c(N[C@H](C)c3ccc(Cl)cc3Cl)n2)[C@@H](C)CN1C(=O)[C@H]1CCCN1CC(=O)O [Example 1.019]	0.1 to 1 µM
C[C@@H](Nc1nc(N2CCN(C(=O)[C@H]3CCCN3)[C@@H](C)C2)ncc1Cl)c1ccc(Cl)cc1Cl [Example 1.011]	< 0.1 µM
C[C@@H](Nc1nc(N2CC[C@H](NC(=O)[C@H]3CCCCN3)[C@@H](O)C2)ncc1Cl)c1ccc(Cl)cc1Cl [Example 1.124]	< 0.1 µM

Could you tell me which IC50 is on file for C[C@@H](Nc1nc(N2CCC(O[C@H]3CCN(C)C3)CC2)ncc1Cl)c1ccc(Cl)cc1Cl [Example 1.178] ?
< 0.1 µM

====

Measured IC50, listed per entry for reference.
- tested-target: CCR4 (Homo sapiens)
- Construct: CEM Cells Endogenous Express CCR4; endogenous in cells; host or cells: CEM cells
- test-protocol: CEM cell chemotaxis (migration) assay to CCL22 (MDC) in 100% Fetal Bovine Serum (FBS)
- Assay type: cell-based
- condition-set: CEM cells in 100% FBS with 1% HEPEs; recombinant human CCL22 0.1 nM; 37° C. 60 minutes

Cc1cnc(N2CCN(C(=O)[C@H]3CCCN3)CC2)nc1N[C@H](C)c1ccc(Cl)cc1Cl	< 100 nM
C[C@@H](Nc1nc(N2CCN(C(=O)[C@H]3CCC(=O)N3)CC2)ncc1C1CC1)c1ccc(Cl)cc1Cl	100 to 1000 nM
C[C@@H](Nc1nc(N2CCN(C(=O)CN3CCCC3)CC2)ncc1Cl)c1ccc(Cl)cc1Cl	< 100 nM

Now look at this one.
Could you tell me which IC50 is on file for C[C@@H](Nc1nc(N2CCN(C(=O)CCN3CCCC3)CC2)ncc1Cl)c1ccc(Cl)cc1Cl ?
< 100 nM

====

- tested-target: CCR4 (Homo sapiens, UniProt P51679)
- Construct: CEM Cells Endogenous Express CCR4; endogenous in cells; host or cells: CEM cells
- test-protocol: CEM cell chemotaxis (migration) assay to CCL22 (MDC) in 100% Fetal Bovine Serum (FBS)
- Format: cell-based
- condition-set: CEM cells in 100% FBS with 1% HEPEs; recombinant human CCL22 0.1 nM; 37° C. 60 minutes
readout-kind: IC50

Study these solved cases before continuing.
C[C@@H](Nc1nc(N2CC[C@H](NC(=O)[C@H]3COCCN3)[C@@H](O)C2)ncc1Cl)c1ccc(Cl)cc1Cl [Example 1.125]	100 to 1000 nM
C[C@@H](Nc1nc(C2=CCN([C@H]3CCCN(CCC(N)=O)C3)CC2)ncc1Cl)c1ccc(Cl)cc1Cl [Example 1.056]	< 100 nM
C[C@@H](Nc1nc(N2CCN(C(=O)[C@H]3CCCN3)CC2)ncc1Cl)c1ccc(Cl)cc1Cl [Example 1.053]	< 100 nM
CCOc1cnc(N2CCN(C(=O)CCN(C)C)CC2)nc1N[C@H](C)c1ccc(Cl)cc1Cl [Example 1.183]	< 100 nM
C[C@@H](Nc1nc(N2CCN(C(=O)[C@@H]3CCCN3C(=O)OC(C)(C)C)CC2)ncc1Cl)c1ccc(Cl)cc1Cl [Example 1.050]	> 1000 nM

Could you tell me which IC50 is on file for C[C@@H](Nc1nc(N2CCN(C(=O)C(N)(CO)CCl)CC2)ncc1Cl)c1ccc(Cl)cc1Cl (stereo partly shown) [Example 1.126] ?
100 to 1000 nM

Can you check C[C@@H](Nc1nc(N2CCN(C(=O)[C@H]3CCC(=O)N3)CC2)ncc1F)c1ccc(Cl)cc1F [Example 1.086] next?
< 100 nM

Hello, the source for this data is patent US20230382894A1, in case you need it.
